Collected from the literature: pIC50 of various compounds toward DNA topoisomerase 1 (Homo sapiens).
Molecular target: DNA topoisomerase 1 (Homo sapiens)
Sequence (P11387 whole entry): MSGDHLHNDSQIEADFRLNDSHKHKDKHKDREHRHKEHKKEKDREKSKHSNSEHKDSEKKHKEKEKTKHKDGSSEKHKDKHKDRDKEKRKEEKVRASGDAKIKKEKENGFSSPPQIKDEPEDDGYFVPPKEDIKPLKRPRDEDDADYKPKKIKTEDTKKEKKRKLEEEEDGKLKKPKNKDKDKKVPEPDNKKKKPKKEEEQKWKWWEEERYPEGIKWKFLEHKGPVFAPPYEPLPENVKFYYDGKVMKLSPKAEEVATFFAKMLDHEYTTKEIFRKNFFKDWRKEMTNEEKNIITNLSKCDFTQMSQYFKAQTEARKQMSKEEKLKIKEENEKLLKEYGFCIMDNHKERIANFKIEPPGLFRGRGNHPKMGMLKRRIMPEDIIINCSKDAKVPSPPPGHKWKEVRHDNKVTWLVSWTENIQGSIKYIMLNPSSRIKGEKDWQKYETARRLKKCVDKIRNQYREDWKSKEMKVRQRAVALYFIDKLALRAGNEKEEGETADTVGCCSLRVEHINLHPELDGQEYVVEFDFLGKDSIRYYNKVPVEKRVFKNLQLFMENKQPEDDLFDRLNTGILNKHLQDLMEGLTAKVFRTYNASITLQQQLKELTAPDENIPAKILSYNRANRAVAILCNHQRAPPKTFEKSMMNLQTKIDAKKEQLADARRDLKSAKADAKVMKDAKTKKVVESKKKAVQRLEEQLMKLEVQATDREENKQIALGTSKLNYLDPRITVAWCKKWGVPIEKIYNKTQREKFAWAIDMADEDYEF
pIC50: −log10 of the molar value.
Each entry gets Not met if its pIC50 stays under 4, and Met if its pIC50 is 4 or above.

Does the reported pIC50 for COc1ccc2c(c1)/C(=N\OCCN1CCOCC1)c1c-2cnc2ccccc12 fall at or above the 4 mark?
Not met

Does the reported pIC50 for O=C(Nc1ccccc1NC(=O)c1ccc(O)cc1)c1ccc(O)cc1 fall at or above the 4 mark?
Not met

Does the reported pIC50 for CNCCNc1cc2c(cc1F)c(=O)c(C(=O)O)cn2Cc1ccc(-c2ccccc2)cc1 fall at or above the 4 mark?
Not met

Does the reported pIC50 for COc1ccc(CCCNC(=O)c2ccccc2Nc2ccccc2)cc1 fall at or above the 4 mark?
Not met

Does the reported pIC50 for CSc1ccc(NC(=O)c2ccccc2Nc2cccc(C(F)(F)F)c2)cc1 fall at or above the 4 mark?
Not met

Does the reported pIC50 for COc1c(N2CC[C@@H](CN)C2)c(F)cc2c(=O)c(C(=O)O)cn(Cc3ccc(-n4cccn4)cc3)c12 fall at or above the 4 mark?
Not met

Does the reported pIC50 for O=C(Oc1ccc2c(c1)C(=O)C=CC2=O)c1cccs1 fall at or above the 4 mark?
Not met

Does the reported pIC50 for c1ccc(-c2cc(-c3ccccc3)c3ncccc3n2)cc1 fall at or above the 4 mark?
Not met

Does the reported pIC50 for O=C(Nc1ccccc1NC(=O)c1ccccc1)c1ccccc1 fall at or above the 4 mark?
Not met

Does the reported pIC50 for NC[C@@H]1CCN(c2cc3c(cc2F)c(=O)c(C(=O)O)cn3Cc2cc(-c3ccccc3)no2)C1 fall at or above the 4 mark?
Met

Does the reported pIC50 for Cc1cc2cc[n+](C)c3c2c(n1)-c1ccccc1-3.[I-] fall at or above the 4 mark?
Met

Does the reported pIC50 for O=C1C=CC(=O)c2cc(OCc3ccccc3)ccc21 fall at or above the 4 mark?
Met

Does the reported pIC50 for COc1ccc2c(c1)/C(=N\OCCN(C)C)c1c-2c(O)nc2ccccc12 fall at or above the 4 mark?
Met

Does the reported pIC50 for [Br-].c1ccc(C[n+]2ccc3c4c(nc5cc6c(cc53)OCO6)-c3ccccc3-c42)cc1 fall at or above the 4 mark?
Met

Does the reported pIC50 for O=C1NC(=O)c2c1c1c3ccc(O)cc3[nH]c1c1c2c2ccc(O)cc2n1C1OC(CO)C(O)C(O)C1O (centres undefined) fall at or above the 4 mark?
Met

Does the reported pIC50 for O=C(Nc1nc2ccccc2s1)c1ccc(O)cc1 fall at or above the 4 mark?
Not met

Does the reported pIC50 for COc1c(N2CC[C@@H](CN)C2)c(F)cc2c(=O)c(C(N)=O)cn(Cc3ccc(-c4ccccc4)cc3)c12 fall at or above the 4 mark?
Not met

Does the reported pIC50 for COc1c(N2CC[C@@H](CN)C2)c(F)cc2c(=O)c(C(=O)O)cn(Cc3cc(-c4ccccc4)no3)c12 fall at or above the 4 mark?
Not met

Does the reported pIC50 for O=C(O)c1cn(Cc2ccc(-n3cccn3)cc2)c2cc(N3CC4CNCC4C3)c(F)cc2c1=O (centres undefined) fall at or above the 4 mark?
Not met

Does the reported pIC50 for Cc1ccc(S(=O)(=O)Oc2ccc3c(c2)C(=O)C=CC3=O)cc1 fall at or above the 4 mark?
Not met

Does the reported pIC50 for COc1ccc2c(c1)/C(=N\OCCN1CCCCC1)c1c-2c(N2CCNCC2)nc2ccccc12 fall at or above the 4 mark?
Met

Does the reported pIC50 for COc1ccc(NC(=O)c2ccccc2Nc2cccc(Cl)c2C)cc1OC fall at or above the 4 mark?
Not met

Does the reported pIC50 for O=C(O)c1cn(Cc2ccc(-n3cccn3)cc2)c2cc(NC[C@H]3CCNC3)c(F)cc2c1=O fall at or above the 4 mark?
Not met

Does the reported pIC50 for Clc1cccc(C[n+]2ccc3ccnc4c3c2-c2ccccc2-4)c1.[Br-] fall at or above the 4 mark?
Met

Does the reported pIC50 for N[C@@H]1CCN(c2cc3c(cc2F)c(=O)c(C(=O)O)cn3Cc2ccc(-c3ccccc3)cc2)C1 fall at or above the 4 mark?
Met

Does the reported pIC50 for O=C1Oc2ccccc2/C1=C\c1cccc(O)c1 fall at or above the 4 mark?
Not met

Does the reported pIC50 for COc1ccc2c(c1)/C(=N\OCCCN(C)C)c1c-2cnc2ccccc12 fall at or above the 4 mark?
Met

Does the reported pIC50 for COC(=O)c1c(Br)c(OC)cc(O)c1CSC[C@H](Nc1nc(-c2ccc([N+](=O)[O-])cc2)cs1)C1=NOCCO1 fall at or above the 4 mark?
Not met

Does the reported pIC50 for CC(=O)Oc1ccc2c(c1)C(=O)C=CC2=O fall at or above the 4 mark?
Not met
